- protocol notes: yeast display, Sf9 membrane polyspecificity reagent, FACS + sequencing; frameworks hold sequencing errors
measured quantity: polyreactivity (PSR sort gate)

Consider the reported polyreactivity (PSR sort gate) for these sequences:
QVQLVESGGGLVQAGGSLRLSCAASGRTFWRYVMGWYRQAPGKERELVASITRSGGTTNYADSVKGRFTISRDIAKNTVYLQMNSLKPEDTAVYYCNARTVYSWSREYNYWGQGTQVTVSS :: high polyreactivity
QDQLVESGGCLVQAGLSLRLSCAASGSTFGPYAMGWYRQAPGKERELVADISGGSTNYADSVKGRFTISRDNAKNTVYLQLNSLKPEDTAFYYCATDDHVETVRRLYGDWGQGTQVTVSS :: low polyreactivity
QVQLVESGGGLVQAGGSLRLSCAASGSTFKSYAMGWYRQAPGKERELVAAINWSGGSTYYADSVKGRFTISRDNAKNTVYLQMTSLKPEDTAVYYCNALYAVRSYDSWGQGTQVTVSS :: high polyreactivity
QVQLVESGGGLVQAGGSLRLSCAASGRTFYPYAMGWYRQAPGKERELVATIRWTGGSTYYADSVKGRFTISRDNAKNTVYLQMNSLKPEDTAVYYCAAQNYFAFIRTYRYVHRPTYYYWGQGTQVTVSS :: high polyreactivity
QVQLVESGGGLVQAGGSLRLSCAASGFIFYRNAMGWYRQAPGKERELVAAISQRGGRTYADSVKGRFTISRDNAKNTVYLQMNSLIPEDTAVYYCAADYLDSTYGYVYGWDDYWGQGTQVTVSS :: low polyreactivity

For each of the sequences below, state polyreactivity (PSR sort gate).
1. QVQLVESGGGLVQAGGSLRLSCAASGSTSKNYAMGWYRQAPGKERELVAAITRGTSTNYADSVKGRFTISRDNAKNTVYLQMNSLKPEDTAVYYCNVERHRVWDYQWREEDDYWGQGTQVTVSS
2. EVQLVESGAGLLQAGGSLRISCAASGITLAYYAMGGYRQAPGTERELVAVINIGVSTDYADSVKGRFTISRDNAKNTVYVQMTSLKPEDTAVYYSAAGWGRRWPQYNYWGQGTQVTVSS
3. QVQLVESGGGLVQAGGSLRLSCAASGSIFRSYAMGWYRQAPGKERELVAGISYSGGSTYYADSVKGRFTISRDNAKNTVYLQMNSLKPEDTAVYYCATVSYYDRYDYDYWGQGTQVTVSS

low polyreactivity
high polyreactivity
low polyreactivity

For each of the sequences below, state polyreactivity (PSR sort gate).
1. QVQLVESGGGLVQAGGRLRLSCAASGRTFYRNAMGWYRQAPGKERELVAGISVRGGRTYYADSVKGRFTISRDNAKNTVYLQMNSLKPEDTAVYYCNKRLSSSLSLKYDYWGQGTQVTVSS
2. QVQLVESGGGLVQAGGSLRLSCAASGITFSFYTMGWYRQAPGKERELVAAMTQDGGSTYYADSVKGRFTISRDNAKNTVYLQMNSLKPEDTAVYYCASDLVVFVQFDVAVDYYYWGQGTQVTVSS
3. QFQLEESGGGLVQAGGSLRLSCAASGRIFPTYTRGWYSQAPGKERVLVAGISYSGTSTSYADSVKGRFTMSRDNAKNSVYLELNSLKPEDTAVYYCAAKYYGRSFYYGYDYWGQGTQVTVSS

["high polyreactivity", "low polyreactivity", "low polyreactivity"]

###

- protocol notes: yeast display, Sf9 membrane polyspecificity reagent, FACS + sequencing; frameworks hold sequencing errors
measured quantity: polyreactivity (PSR sort gate)

QVQLVESGGGLVQAGGSLRLSCAASGSINHYAMGWYRQAPGKERELVAAISSSGGTTYYADSVKGRFTISRDNAKNTVYLQMNSLKPEDTAVYYCAADKLSGGLDYWGQGTQVTVSS :: high polyreactivity
HVQLVESGGGLVQAGGSLRLSCAASGRIFYYNAMGWYRQAPGKERELVAVITWRGGTTYYADSVKGRFTTSRDTAKNTVYLQMNSLKPEDTAVYYCAADTGAFDGYYRQPRIRFDYWGQGTQVTVSS :: high polyreactivity
QVQLVESGGGLDQARGSLRLSCAASGRTFWTNVMGWYRQAPGKERELVAAITSSTDSTYYADSVKGRFTISLDNAKNTVYLQMNSLKPEDTAVYYCATVVRLYRGRYRYDYWGQGTQVTVSS :: high polyreactivity

// provenance: the nanobody polyreactivity screen of Harvey et al. (2022)
